experimental-system: human ABCB4 (Homo sapiens, UniProt P21439)
Construct: expressed in transfected cells; host or cells: Abcb1KO-MDCKII (canine kidney, Abcb1 knockout), lentiviral transduction, single clone
Sequence (P21439 1-1279 isoform P21439-2): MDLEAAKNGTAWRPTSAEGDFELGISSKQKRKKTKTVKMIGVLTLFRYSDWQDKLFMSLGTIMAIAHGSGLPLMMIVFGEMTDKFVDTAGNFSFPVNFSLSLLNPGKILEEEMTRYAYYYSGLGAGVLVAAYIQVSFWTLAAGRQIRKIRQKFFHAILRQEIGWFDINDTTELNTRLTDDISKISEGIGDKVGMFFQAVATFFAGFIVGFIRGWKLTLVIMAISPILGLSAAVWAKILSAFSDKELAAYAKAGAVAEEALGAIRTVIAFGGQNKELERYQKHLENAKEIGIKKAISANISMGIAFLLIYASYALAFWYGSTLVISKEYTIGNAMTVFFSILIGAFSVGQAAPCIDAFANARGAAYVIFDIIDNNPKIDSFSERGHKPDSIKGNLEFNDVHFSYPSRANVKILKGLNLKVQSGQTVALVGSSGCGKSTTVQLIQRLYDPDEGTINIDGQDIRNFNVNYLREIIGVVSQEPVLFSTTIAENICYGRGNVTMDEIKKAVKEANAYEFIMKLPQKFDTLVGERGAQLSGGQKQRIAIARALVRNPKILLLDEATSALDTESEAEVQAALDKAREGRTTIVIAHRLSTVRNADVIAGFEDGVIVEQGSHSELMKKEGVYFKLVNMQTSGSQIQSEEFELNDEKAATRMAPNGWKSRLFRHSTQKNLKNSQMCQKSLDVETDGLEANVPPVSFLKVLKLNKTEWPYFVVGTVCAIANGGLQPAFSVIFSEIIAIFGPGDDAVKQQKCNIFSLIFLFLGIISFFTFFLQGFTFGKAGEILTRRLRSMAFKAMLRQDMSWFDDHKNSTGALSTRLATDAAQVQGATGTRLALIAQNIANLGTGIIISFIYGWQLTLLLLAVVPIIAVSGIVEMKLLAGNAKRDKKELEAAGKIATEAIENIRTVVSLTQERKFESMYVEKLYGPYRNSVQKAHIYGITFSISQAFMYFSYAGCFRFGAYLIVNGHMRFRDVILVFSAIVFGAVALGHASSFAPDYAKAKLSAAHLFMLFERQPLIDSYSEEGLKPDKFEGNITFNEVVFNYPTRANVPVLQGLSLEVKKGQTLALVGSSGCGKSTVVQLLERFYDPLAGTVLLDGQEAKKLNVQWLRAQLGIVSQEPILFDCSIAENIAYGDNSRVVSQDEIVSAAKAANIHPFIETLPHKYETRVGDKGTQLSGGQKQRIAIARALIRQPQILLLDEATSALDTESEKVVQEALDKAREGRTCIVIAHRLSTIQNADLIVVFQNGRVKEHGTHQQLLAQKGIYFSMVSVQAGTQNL
procedure-details: Inhibition of ABCB4-mediated digoxin transport, bidirectional assay in Abcb1KO-MDCKII-ABCB4 cells
Format: cell-based
applied-conditions: digoxin 1 µM probe, ABCB4 cell monolayers, samples at 3 h; read-out: IC50 (µM), Based on Digoxin ER
property-name: IC50

1) CC[C@H](Nc1ncnc2[nH]cnc12)c1nc2cccc(F)c2c(=O)n1-c1ccccc1 ... > 5 µM
2) CC(=O)Oc1ccccc1C(=O)O ... > 100 µM
3) CCCCc1oc2ccccc2c1C(=O)c1cc(I)c(OCCN(CC)CC)c(I)c1 ... > 10 µM
4) CC(C)OC(=O)C(C)(C)Oc1ccc(C(=O)c2ccc(Cl)cc2)cc1 [fenofibrate] ... > 20 µM
